Catalogue of EC50 readings, one per entry.
Biological target: T1, recombinant monkey CD73 protein (monkey, UniProt A0A2K5V5U7 27-549)
T1 construct: Monkey species not further named for the recombinant protein (the cell line is called cynoCD73)
T1 sequence: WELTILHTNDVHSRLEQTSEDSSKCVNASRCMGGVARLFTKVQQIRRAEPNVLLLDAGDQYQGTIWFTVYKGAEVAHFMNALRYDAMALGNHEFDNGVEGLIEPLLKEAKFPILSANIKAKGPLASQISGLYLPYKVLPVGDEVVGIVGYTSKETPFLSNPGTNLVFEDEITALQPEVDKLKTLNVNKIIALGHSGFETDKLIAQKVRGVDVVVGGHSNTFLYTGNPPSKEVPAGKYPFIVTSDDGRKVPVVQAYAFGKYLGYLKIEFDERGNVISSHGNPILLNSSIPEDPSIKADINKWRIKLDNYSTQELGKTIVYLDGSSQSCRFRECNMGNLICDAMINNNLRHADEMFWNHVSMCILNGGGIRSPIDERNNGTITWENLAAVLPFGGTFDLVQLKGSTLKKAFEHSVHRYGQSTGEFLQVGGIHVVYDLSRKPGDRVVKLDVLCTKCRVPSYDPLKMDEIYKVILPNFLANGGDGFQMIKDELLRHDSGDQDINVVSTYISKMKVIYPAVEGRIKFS
Assay: ELISA, recombinant monkey CD73
Please respond with the number in µg/mL and leave the unit unwritten.

Previously resolved entries follow.
| binder | unit_abbrev | EC50 |
| --- | --- | --- |
| humanized CQ137 monoclonal antibody (137-6) (antibody, V domains shown) VH: QVQLVQSGAEVKKPGSSVKVSCKASGYSFTGYYIHWVRQAPGQGLEWMGRINPYNGATTYNQNFKDRVTITVDKSTSTAYMELSSLRSEDTAVYYCARFHYGAPEYWGQGTLVTVSS VL: DIQMTQSPSSLSASVGDRVTITCKASQDINTYLTWYQQKPGKAPKTLIYRANILVDGVPSRFSGSGSGTDFTLTISSLQPEDFATYYCLQYAEFPLTFGGGTKVEIKR | µg/mL | 0.315 |
| humanized CQ137 monoclonal antibody (137-5) (antibody, V domains shown) VH: QVQLVQSGAEVKKPGSSVKVSCKASGYSFTGYYIHWVRQAPGQGLEWMGRINPYNGATTYNQNFKDRVTITVDKSTSTAYMELSSLRSEDTAVYYCARFHYGAADYWGQGTLVTVSS VL: DIQMTQSPSSLSASVGDRVTITCKASQDINTYLTWYQQKPGKAPKTLIYRANILVDGVPSRFSGSGSGTDFTLTISSLQPEDFATYYCLQYNEFPLTFGGGTKVEIKR | µg/mL | 0.734 |

Turning to the following binder.
Given humanized CQ137 monoclonal antibody (137-9) (antibody, V domains shown) VH: QVQLVQSGAEVKKPGSSVKVSCKASGYSFTGYYIHWVRQAPGQGLEWMGRINPYNGATTYNQNFKDRVTITVDKSTSTAYMELSSLRSEDTAVYYCARFHYGAPDLWGQGTLVTVSS VL: DIQMTQSPSSLSASVGDRVTITCKASQDINTYLTWYQQKPGKAPKTLIYRANILVDGVPSRFSGSGSGTDFTLTISSLQPEDFATYYCLQYDAFPLTFGGGTKVEIKR , state its recorded EC50.
3.76
